# Test system: CEM-SS cells
Please respond with reported CEM-SS TC50 ± SD for every item in the list.
Answer with a number only, understood to be in µM.

(Q) GET /values?readout=CEM-SS TC50 ± SD&item= CCC[C@@]1(CCc2ccccc2)CC(O)=C([C@H](CC)c2cccc(N(CCOCCOCCOCCOCCOCCOCCOC)S(=O)(=O)c3ccc(C(F)(F)F)cn3)c2)C(=O)O1 [mPEG7-amide-Tipranavir]
(A) 14.5

(Q) Now this one: COCCOCCOCCOCCOCCOCCOCCOC(=O)NC(C(=O)NC(Cc1ccccc1)C(O)CN(Cc1ccc(-c2ccccn2)cc1)NC(=O)C(NC(=O)OC)C(C)(C)C)C(C)(C)C (centres unmarked) [mono-mPEG7-Atazanavir]
(A) 133.8

(Q) One more compound: COCCOC(=O)NC(C(=O)NC(Cc1ccccc1)C(O)CN(Cc1ccc(-c2ccccn2)cc1)NC(=O)C(NC(=O)OC)C(C)(C)C)C(C)(C)C (centres unmarked) [mono-mPEG1-Atazanavir]
(A) 49.1

(Q) Then this compound: CCCC1(CCc2ccccc2)CC(O)=C(C(CC)c2cccc(N(CCOCCOCCOC)S(=O)(=O)c3ccc(C(F)(F)F)cn3)c2)C(=O)O1 (centres unmarked) [mPEG3-amide-Tipranavir]
(A) 1.3

(Q) Also COCCOCCOCCOCCOCCOCCOC(=O)N[C@@H](C(=O)NC(Cc1ccccc1)[C@@H](O)CN(Cc1ccc(-c2ccccn2)cc1)NC(=O)[C@H](NC(=O)OCCOCCOCCOCCOCCOCCOC)C(C)(C)C)C(C)(C)C (some centres unmarked) [di-mPEG6-Atazanavir] ?
(A) 158.6

(Q) // same read-out, input: CCCC1(CCc2ccccc2)CC(O)=C(C(CC)c2cccc(N(CCOCCOCCOCCOCCOC)S(=O)(=O)c3ccc(C(F)(F)F)cn3)c2)C(=O)O1 (centres unmarked) [mPEG5-amide-Tipranavir]
(A) 12.8

# credit: patent US10806794B2
